Entry source: patent US20220356255A1

Here, each record is paired with measured EC50 data.
target: T1, human PD-L1 on cells (human, UniProt Q9NZQ7 19-290); assay: flow cytometry on MDA-MB-231 cells, Krebs buffer, pH 7.4
T1 construct: Endogenous on MDA-MB-231 cells or transfected into HEK293FF cells (Sino Biological plasmid); the assay field says which; also called native PD-L1 on MDA-MB-231 cells; PD-L1 expressing MDA-MB-231 cells
T1 sequence (Q9NZQ7 19-290 limits assumed): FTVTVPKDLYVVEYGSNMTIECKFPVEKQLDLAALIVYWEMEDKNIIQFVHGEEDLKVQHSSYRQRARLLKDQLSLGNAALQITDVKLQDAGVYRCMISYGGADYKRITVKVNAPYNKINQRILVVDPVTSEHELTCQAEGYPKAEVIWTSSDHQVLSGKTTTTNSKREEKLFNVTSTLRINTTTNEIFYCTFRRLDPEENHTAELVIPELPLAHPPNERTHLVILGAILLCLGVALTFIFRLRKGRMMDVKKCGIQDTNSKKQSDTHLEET
Experimental readout: EC50

1. Fab 8B06 (Fab, V domains shown, Purified Fab prepared from IgG with the Pierce kit; also called 8B06 Fab) VH: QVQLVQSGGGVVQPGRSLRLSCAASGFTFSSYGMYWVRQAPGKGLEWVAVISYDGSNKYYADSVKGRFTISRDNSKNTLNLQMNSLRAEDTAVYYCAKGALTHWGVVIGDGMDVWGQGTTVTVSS VL: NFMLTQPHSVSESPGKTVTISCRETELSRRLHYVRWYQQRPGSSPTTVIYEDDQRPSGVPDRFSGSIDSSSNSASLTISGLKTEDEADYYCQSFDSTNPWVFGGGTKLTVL; > 100 nM
2. Fab 8A04 (Fab, V domains shown, Purified Fab prepared from IgG with the Pierce kit; also called 8A04 Fab) VH: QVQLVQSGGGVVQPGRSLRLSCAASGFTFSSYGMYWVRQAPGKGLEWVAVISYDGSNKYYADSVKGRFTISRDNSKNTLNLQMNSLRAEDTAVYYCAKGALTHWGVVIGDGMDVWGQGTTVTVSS VL: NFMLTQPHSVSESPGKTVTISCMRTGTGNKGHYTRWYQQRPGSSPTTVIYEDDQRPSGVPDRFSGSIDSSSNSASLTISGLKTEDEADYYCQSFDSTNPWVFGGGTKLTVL; > 100 nM
3. Fab 8D04 (Fab, V domains shown, Purified Fab prepared from IgG with the Pierce kit; also called 8D04 Fab) VH: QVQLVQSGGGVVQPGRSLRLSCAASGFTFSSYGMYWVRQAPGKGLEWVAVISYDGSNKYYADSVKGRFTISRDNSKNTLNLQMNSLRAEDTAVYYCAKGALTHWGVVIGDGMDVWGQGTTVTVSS VL: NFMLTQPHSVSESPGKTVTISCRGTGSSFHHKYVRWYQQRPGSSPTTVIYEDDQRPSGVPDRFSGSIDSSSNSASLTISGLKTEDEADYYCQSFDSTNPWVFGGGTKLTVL; > 100 nM
